system: 349418-098-R-PDC complex spheroid growth; test: Anticancer human tumor 349418-098-R-PDC patient-derived lung adenocarcinoma cell line growth inhibition [AhR]; details: second compound 0.1 µM; first compound 0.1 µM; hits give low values;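 also: spheroids also contain HUVEC endothelial cells and human MSC stroma; spheroids exposed to agents for seven days before luminescence viability read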
Hi there, I'd appreciate the recorded viability, T/C for every entry that follows.
Give bare numbers, in %.

Examples with their reported viability, T/C follow.
| compound | system.under.test | u | result.value |
| --- | --- | --- | --- |
| CC1(C)CCC(CN2CCN(c3ccc(C(=O)NS(=O)(=O)c4ccc(NCC5CCOCC5)c([N+](=O)[O-])c4)c(Oc4cnc5[nH]ccc5c4)c3)CC2)=C(c2ccc(Cl)cc2)C1 + CC(CO)NC(=O)c1cc(-c2ccc(Cl)cc2)nn(-c2cnn(C)c2)c1=O | 349418-098-R-PDC complex spheroid growth | % | 89.9 |
| CC(C)c1c(-c2ccccc2)nc2c(C#N)c[nH]n2c1=O + CC(CO)NC(=O)c1cc(-c2ccc(Cl)cc2)nn(-c2cnn(C)c2)c1=O | 349418-098-R-PDC complex spheroid growth | % | 66.8 |

Provide each entry's viability, T/C from the list below.
1. NS(=O)(=O)OCC1CC(n2ccc3c(NC4CCc5ccccc54)ncnc32)CC1O (configuration not stated) + Cc1ccccc1N=Nc1ccc(NC(=O)c2ccnn2C)c(C)c1
2. CC(C)c1c(-c2ccccc2)nc2c(C#N)c[nH]n2c1=O + Cc1ccccc1N=Nc1ccc(NC(=O)c2ccnn2C)c(C)c1

81.3
85.6

Provide each entry's viability, T/C from the list below.
1. CC(C)c1c(-c2ccccc2)nc2c(C#N)c[nH]n2c1=O + Cc1cncc(-c2nc(NCCc3c[nH]c4ccccc34)c3ncn(C(C)C)c3n2)c1
2. O=C(c1cc(Cc2n[nH]c(=O)c3ccccc23)ccc1F)N1CCN(C(=O)C2CC2)CC1 + Cc1cncc(-c2nc(NCCc3c[nH]c4ccccc34)c3ncn(C(C)C)c3n2)c1
3. Cn1ncnc1C1c2n[nH]c(=O)c3cc(F)cc(c23)NC1c1ccc(F)cc1 (configuration not stated) + Cc1cncc(-c2nc(NCCc3c[nH]c4ccccc34)c3ncn(C(C)C)c3n2)c1
4. CC1COCCN1c1cc(C2(S(C)(=N)=O)CC2)nc(-c2ccnc3[nH]ccc23)n1 (configuration not stated) + CC(CO)NC(=O)c1cc(-c2ccc(Cl)cc2)nn(-c2cnn(C)c2)c1=O

1: 94.6; 2: 91.6; 3: 80.6; 4: 71.8

Provide each entry's viability, T/C from the list below.
1. COc1cccc2c1C(=O)c1c(O)c3c(c(O)c1C2=O)CC(O)(C(=O)CO)CC3OC1CC(N)C(O)C(C)O1 (configuration not stated) + CC(CO)NC(=O)c1cc(-c2ccc(Cl)cc2)nn(-c2cnn(C)c2)c1=O
2. COc1cc(Nc2ncc3c(n2)-c2ccc(Cl)cc2C(c2c(F)cccc2OC)=NC3)ccc1C(=O)O + CC(CO)NC(=O)c1cc(-c2ccc(Cl)cc2)nn(-c2cnn(C)c2)c1=O
3. Nc1ncn(C2CC(O)C(CO)O2)c(=O)n1 (configuration not stated) + Cc1ccccc1N=Nc1ccc(NC(=O)c2ccnn2C)c(C)c1

[13.4, 49.3, 39.9]

Dear colleague, I am looking for the recorded viability, T/C of the following compound: O=C(c1cc(Cc2n[nH]c(=O)c3ccccc23)ccc1F)N1CCN(C(=O)C2CC2)CC1 + CC(CO)NC(=O)c1cc(-c2ccc(Cl)cc2)nn(-c2cnn(C)c2)c1=O
81.6

Data provenance is PubChem BioAssay AID1918996.
